System: HOP-62 NSCLC
Assay: NCI-60 one-dose screen, 48 h
Conditions: 10 µM unless noted
About 83,000 compounds went through this panel and 20% of them were active in at least one assay; those are over-represented in the sample as a whole. Active and inactive are the calls of the source. The calls were made as follows: active = growth percent below 10; inactive = the rest.
Possible outcomes: active, inactive

molecule	assay-system	label-value
CC1=C[C@H]2c3c(c(O)c(O)c4oc5ccccc5c(=O)c34)[C@H](c3cc(O)c(O)c4oc5ccccc5c(=O)c34)[C@H]2C(C)(C)C1	HOP-62 NSCLC	active
COc1ccc(S(=O)(=O)N2CC3(COC3)C2)cc1NC(=O)c1[nH]c(C)c2c1CCCCC2=O	HOP-62 NSCLC	inactive
N#Cc1nnn(-c2ccc(S(N)(=O)=O)cc2)c1NCC(=O)c1ccccc1	HOP-62 NSCLC	inactive
C#CCOc1ccc2ncnc(N3CCN(C(=O)CCl)CC3)c2c1	HOP-62 NSCLC	inactive
COc1cc(CNc2oc(-c3ccccc3)c(-c3ccccc3)c2C#N)cc(CN2CCN(C)CC2)c1O	HOP-62 NSCLC	inactive
CC(C)(C)N1CCC1CN (stereo not drawn)	HOP-62 NSCLC	inactive
COc1cc(-c2ccc3c(c2)NC(=O)/C3=C\c2ccc[nH]2)ccc1O	HOP-62 NSCLC	inactive
CCCOc1ccc2nc(NC(=O)OC)[nH]c2c1	HOP-62 NSCLC	inactive
COc1cc(/C=C/c2cc(O)c3cc(C(C)=O)c(=O)oc3c2)cc2c1O[C@]1(C)CC[C@@H](O)C(C)(C)[C@H]1C2	HOP-62 NSCLC	inactive
COc1cc2c(cc1-c1c(C)noc1C)ncc1nc(-c3ccccn3)n([C@H](C)COC(F)F)c12	HOP-62 NSCLC	inactive
CC(=O)O[C@H]1C(=O)[C@@]2(C)[C@H]([C@H](OC(=O)c3ccccc3)[C@]3(O)C[C@H](OC(=O)[C@H](OC(=O)CCC(=O)OC4CCC(S/N=C(N)/N=C(\N)N(C)C)CC4)[C@@H](NC(=O)c4ccccc4)c4ccccc4)C(C)=C1C3(C)C)[C@]1(OC(C)=O)CO[C@@H]1C[C@@H]2O (stereo partly drawn)	HOP-62 NSCLC	inactive
FC(F)(F)Oc1ccc2nc3nc4ccc[nH]c4cc3c2c1	HOP-62 NSCLC	inactive
N#C/C(=C\c1ccc(-c2ccc(Cl)c(Cl)c2)o1)c1nc(-c2ccco2)cs1	HOP-62 NSCLC	inactive
CSc1ccc(-c2ccccc(=O)c2O)cc1	HOP-62 NSCLC	active
CCOc1ccc(-n2nc(C(=O)Nc3ccccc3)nc2-c2cc(OC)c(OC)c(OC)c2)cc1	HOP-62 NSCLC	inactive
C(=C\c1nccc2c1[nH]c1ccccc12)/c1ccccc1	HOP-62 NSCLC	inactive
Oc1ccc(N=Cc2ccccc2O)cc1	HOP-62 NSCLC	inactive
O=c1c2c3c(sc2nc(N/N=C/c2cn(-c4ccccc4)nc2-c2ccc(Cl)cc2)n1Cc1ccccc1)CCCC3	HOP-62 NSCLC	inactive

====

System: NCI-H23 lung
Experiment: NCI-60 one-dose screen, 48 h
Conditions: 10 µM unless noted
Compounds without any hit were thinned out: in the full panel of roughly 83,000, 20% have a hit. Activity calls are given as the source filed them. The calls were made as follows: active = growth percent below 10; inactive = the rest.
Possible outcomes: 1.0 = active, 0.0 = inactive

                                smiles_code  label_value
0  O=C(NCCN1CCOCC1)Nc1ccc(-c2cc3c(Nc4ccc(Oc5cccc(C(F)(F)F)c5)c(Cl)c4)ncnc3s2)cc1          0.0
1  COc1cc(-c2nc3ccccc3[nH]2)ccc1OCC(=O)N=Nc1c(O)[nH]c2ccc(Cl)cc12          1.0
2  O=C1c2ccccc2C(=O)c2c(N=Nc3[nH]c(=S)[nH]c3O)cccc21          0.0
3  O=C(CN1C(=O)/C(=C/c2ccc(Cl)cc2)SC1=S)NCCCN1CCOCC1          0.0
4  Cn1cc(C(=O)c2nc(-c3c[nH]c4ccc(Br)cc34)no2)c2cc(F)ccc21          0.0
